Here, each record is paired with measured glycan array binding signal (z-score) data.
# Tested on: Neu5Ac(a2-3)Gal(b1-3)[Neu5Ac(a2-3)Gal(b1-4)]GlcNAc
# Assay explanation: glycan array binding signal (z-score within array); higher = stronger binding
# Conditions: glycan notation: IUPAC condensed, linker removed
Shown is part of a subset that was picked to be rich in the strongest signals.
Number only, no unit.

{"columns": ["Binder", "glycan array binding signal (z-score)"],
 "data": [
  ["IRP60A (Homo sapiens), Q9UGN4 (protein) MWLPWALLLLWVPGCFALSKCRTVAGPVGGSLSVQCPYEKEHRTLNKYWCRPPQIFLCDKIVETKGSAGKRNGRVSIRDSPANLSFTVTLENLTEEDAGTYWCGVDTPWLRDFHDPVVEVEVSVFPASTSMTPASITAAKTSTITTAFPPVSSTTLFAVGATHSASIQEETEEVVNSQLPLLLSLLALLLLLLVGASLLAWRMFQKWIKAGDHSELSQNPKQAATQSELHYANLELLMWPLQEKPAPPREVEVEYSTVASPREELHYASVVFDSNTNRIAAQRPREEEPDSDYSVIRKT", -0.378],
  ["MCL (Mus musculus), Q9Z2H6 (protein) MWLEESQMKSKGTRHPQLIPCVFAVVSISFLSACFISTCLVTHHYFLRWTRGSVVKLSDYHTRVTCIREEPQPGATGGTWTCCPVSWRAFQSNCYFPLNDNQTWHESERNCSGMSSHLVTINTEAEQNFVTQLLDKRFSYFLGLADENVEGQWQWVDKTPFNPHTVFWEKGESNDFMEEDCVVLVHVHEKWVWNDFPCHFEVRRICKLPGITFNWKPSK", 2.08]
]}

Let us examine a further case.
Incoming: Request the reported glycan array binding signal (z-score) associated with CGL3 (Coprinopsis cinerea) (protein) MGHHHHHHHHSGFHILRLESTVDLSEPLKDNGIIVFQSDKLDLEPSPNLGPTGIDNTNVNLINAKGDVLLHIGIRRRENAFVFNSIPYGESRGPEERIPLEGTFGDRRDPSITVFDHPDRYQIMIDYKTVYYYKKRLEGRCEKVSYKINEGQTPPFSDVLGVTVLYFANVMPRAN
Outgoing: -0.222
